protocolSummary: Half life in Sprague-Dawley rat plasma at 1 mg/kg, iv after 24 hrs
Type: ADME, organism-based
Parameters: dose 1 mg/kg, route intravenous
propertyLabel: half-life (h)
Provide only the numeric value, understood in h.

// returns reported half-life for input `Cc1oc(-c2ccccc2)nc1C/C=C/c1ccc(C[C@@H](C(=O)O)n2cccc2)cc1`
5.6

----------
For each of the compounds below, state its bioavailability.
protocolSummary: Bioavailability in Sprague-Dawley rat plasma at 5 mg/kg, po after 24 hrs
Format: ADME, organism-based
Lab book: enter the figure in %, no units written.

# query: bioavailability of entry `Cc1oc(-c2ccccc2)nc1CCCc1ccc(C[C@@H](C(=O)O)n2cccc2)cc1`
50

For the compound `Cc1oc(-c2ccccc2)nc1C/C=C/c1ccc(C[C@@H](C(=O)O)n2cccc2)cc1` , what bioavailability is on record?
62
